Data provenance is the NIST ThermoML archive (doi:10.1021/je200589f).

I'd be grateful if you could share measured mass density for these entries.
MEASUREMENT SETUP: 323.15 K; 101.33 kPa; Liquid; Vibrating tube method
Your answer is read as kg/m3, so omit the unit and give the number.

Requested field: mass density. Item: OCCCCCCn1cc[nH+]c1.[Cl-] [1-(6-hydroxyhexyl)imidazolium chloride]
1124.63

Requested field: mass density. Item: CCCCn1cc[n+](CCCCCCO)c1.[Cl-] [1-butyl-3-(6-hydroxyhexyl)-1H-imidazolium chloride]
1052.52

Requested field: mass density. Item: Cn1cc[n+](CCCCCCO)c1.[Cl-] [3-(6-hydroxyhexyl)-1-methylimidazolium chloride]
1108.63

Requested field: mass density. Item: CCn1cc[n+](CCCCCCO)c1.[Cl-] [1-ethyl-3-(6-hydroxyhexyl)-1H-imidazolium chloride]
1090.95

----------
I'd be grateful if you could share measured viscosity for these entries.
MEASUREMENT SETUP: 348.15 K; 101.33 kPa; Liquid
Your answer is read as mPa·s, so omit the unit and give the number.

Requested field: viscosity. Item: Cn1cc[n+](CCCCCCO)c1.[Cl-] [3-(6-hydroxyhexyl)-1-methylimidazolium chloride]
51.3

Requested field: viscosity. Item: CCn1cc[n+](CCCCCCO)c1.[Cl-] [1-ethyl-3-(6-hydroxyhexyl)-1H-imidazolium chloride]
57.4

Requested field: viscosity. Item: CCCCn1cc[n+](CCCCCCO)c1.[Cl-] [1-butyl-3-(6-hydroxyhexyl)-1H-imidazolium chloride]
76.1

Requested field: viscosity. Item: OCCCCCCn1cc[nH+]c1.[Cl-] [1-(6-hydroxyhexyl)imidazolium chloride]
41.3

----------
I'd be grateful if you could share measured viscosity for these entries.
MEASUREMENT SETUP: 333.15 K; 101.33 kPa; Liquid
Your answer is read as mPa·s, so omit the unit and give the number.

Requested field: viscosity. Item: CCn1cc[n+](CCCCCCO)c1.[Cl-] [1-ethyl-3-(6-hydroxyhexyl)-1H-imidazolium chloride]
102.6

Requested field: viscosity. Item: OCCCCCCn1cc[nH+]c1.[Cl-] [1-(6-hydroxyhexyl)imidazolium chloride]
72.6

Requested field: viscosity. Item: Cn1cc[n+](CCCCCCO)c1.[Cl-] [3-(6-hydroxyhexyl)-1-methylimidazolium chloride]
91.2

Requested field: viscosity. Item: CCCCn1cc[n+](CCCCCCO)c1.[Cl-] [1-butyl-3-(6-hydroxyhexyl)-1H-imidazolium chloride]
133

----------
MEASUREMENT SETUP: 323.15 K, Pendant drop shape
PROPERTY LABEL: surface tension liquid-gas (mN/m)
Your answer is read as mN/m, so omit the unit and give the number.

Requested field: surface tension liquid-gas. Item: CCCCn1cc[n+](CCCCCCO)c1.[Cl-] [1-butyl-3-(6-hydroxyhexyl)-1H-imidazolium chloride]
25.9

Requested field: surface tension liquid-gas. Item: CCn1cc[n+](CCCCCCO)c1.[Cl-] [1-ethyl-3-(6-hydroxyhexyl)-1H-imidazolium chloride]
36.25

Requested field: surface tension liquid-gas. Item: OCCCCCCn1cc[nH+]c1.[Cl-] [1-(6-hydroxyhexyl)imidazolium chloride]
44.95

Requested field: surface tension liquid-gas. Item: Cn1cc[n+](CCCCCCO)c1.[Cl-] [3-(6-hydroxyhexyl)-1-methylimidazolium chloride]
43.95

----------
TEST METHOD NOTES: refractive index (Na D-line) (dimensionless)
MEASUREMENT SETUP: 298.15 K; 101.33 kPa; Liquid; Standard Abbe refractometry
PROPERTY LABEL: refractive index
Reply: number alone, nothing else.

Requested field: refractive index. Item: CCCCn1cc[n+](CCCCCCO)c1.[Cl-] [1-butyl-3-(6-hydroxyhexyl)-1H-imidazolium chloride]
1.5119

Requested field: refractive index. Item: Cn1cc[n+](CCCCCCO)c1.[Cl-] [3-(6-hydroxyhexyl)-1-methylimidazolium chloride]
1.5093

Requested field: refractive index. Item: OCCCCCCn1cc[nH+]c1.[Cl-] [1-(6-hydroxyhexyl)imidazolium chloride]
1.508

Requested field: refractive index. Item: CCn1cc[n+](CCCCCCO)c1.[Cl-] [1-ethyl-3-(6-hydroxyhexyl)-1H-imidazolium chloride]
1.5102
